Cited source for all entries: paper PMC8151276

target: HTR1D (Homo sapiens); construct: purchased Promega (in-house HiBiT-GPCR construct library, NanoBRET); experiment: NanoBRET screen HiBiT-HTR1D in HEK293; type: binding; settings: HTR1D; tracer 1μM
Sequence (P28221 whole entry): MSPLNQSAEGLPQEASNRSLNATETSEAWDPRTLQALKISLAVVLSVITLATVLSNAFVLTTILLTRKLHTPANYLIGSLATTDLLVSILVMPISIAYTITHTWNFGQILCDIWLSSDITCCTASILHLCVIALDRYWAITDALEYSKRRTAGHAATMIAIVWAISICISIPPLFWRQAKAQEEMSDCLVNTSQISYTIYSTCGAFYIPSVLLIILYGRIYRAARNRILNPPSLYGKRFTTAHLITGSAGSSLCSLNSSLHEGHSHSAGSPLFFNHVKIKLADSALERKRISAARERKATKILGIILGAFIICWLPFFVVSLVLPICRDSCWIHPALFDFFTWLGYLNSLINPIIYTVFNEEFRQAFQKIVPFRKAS
Recorded endpoint: NanoBRET Fold Response

{"Molecule": "CCCn1c(=O)c2[nH]c(-c3ccc(OCC(=O)NCCNC(=O)CCOCCNC(=O)c4ccc(CNC(=O)CCc5ccc6n5[B-](F)(F)[N+]5=C(c7ccc[nH]7)C=CC5=C6)cc4)cc3)nc2n(CCC)c1=O", "Recorded endpoint": "NanoBRET Fold Response", "Recorded number": 0.65}
{"Molecule": "O=C(CCc1ccc2n1[B-](F)(F)[N+]1=C(c3ccc[nH]3)C=CC1=C2)NCCOCCOCCNC(=O)OCCOCCN1CCN(C2=Nc3ccccc3Sc3ccccc32)CC1", "Recorded endpoint": "NanoBRET Fold Response", "Recorded number": 1.32}
{"Molecule": "O=C(CCOCCOCCOCCOCCNC(=O)CCc1ccc2n1[B-](F)(F)[N+]1=C(c3ccc[nH]3)C=CC1=C2)NCCCN1CCN(C2=Nc3ccccc3Oc3ccc(Cl)cc32)CC1", "Recorded endpoint": "NanoBRET Fold Response", "Recorded number": 1.74}
{"Molecule": "Cc1cc2c(s1)Nc1ccccc1N=C2N1CCN(CCCNC(=O)CCOCCOCCOCCOCCNC(=O)CCc2ccc3n2[B-](F)(F)[N+]2=C(c4ccc[nH]4)C=CC2=C3)CC1", "Recorded endpoint": "NanoBRET Fold Response", "Recorded number": 1.29}
{"Molecule": "CC(C)N(CC[C@H](c1ccccc1)c1cc(CCNC(=O)c2ccc(CNC(=O)CCc3ccc4n3[B-](F)(F)[N+]3=C(c5ccc[nH]5)C=CC3=C4)cc2)ccc1O)C(C)C", "Recorded endpoint": "NanoBRET Fold Response", "Recorded number": 0.92}
{"Molecule": "CC(C)N(CC[C@H](c1ccccc1)c1cc(CCNC(=O)CCOCCOCCOCCOCCNC(=O)CCc2ccc3n2[B-](F)(F)[N+]2=C(c4ccc[nH]4)C=CC2=C3)ccc1O)C(C)C", "Recorded endpoint": "NanoBRET Fold Response", "Recorded number": 0.68}
{"Molecule": "O=C(CCc1ccc2n1[B-](F)(F)[N+]1=C(c3ccc[nH]3)C=CC1=C2)NCc1ccc(C(=O)NCCOCCC(=O)N[C@@H]2CC[C@@]3(O)[C@H]4Cc5ccc(O)c6c5[C@@]3(CCN4CC3CC3)[C@H]2O6)cc1 [Naltrexone-3-NB590]", "Recorded endpoint": "NanoBRET Fold Response", "Recorded number": 0.94}
{"Molecule": "N#CN=C(NCCCOc1cccc(CN2CCCCC2)c1)NCCNC(=O)CCOCCOCCOCCOCCNC(=O)CCc1ccc2n1[B-](F)(F)[N+]1=C(c3ccc[nH]3)C=CC1=C2", "Recorded endpoint": "NanoBRET Fold Response", "Recorded number": 1.21}
{"Molecule": "COc1ccccc1N1CCN(CCCCN2C(=O)c3ccc(CNC(=O)CCOCCNC(=O)c4ccc(CNC(=O)CCc5ccc6n5[B-](F)(F)[N+]5=C(c7ccc[nH]7)C=CC5=C6)cc4)cc3C2=O)CC1", "Recorded endpoint": "NanoBRET Fold Response", "Recorded number": 1.70}
{"Molecule": "Cc1nc2n(c(=O)c1CCN1CCC(c3noc4cc(F)ccc34)CC1)CCCC2OC(=O)NCCOCCOCCOCCOCCNC(=O)CCc1ccc2n1[B-](F)(F)[N+]1=C(c3ccc[nH]3)C=CC1=C2 (centres unmarked)", "Recorded endpoint": "NanoBRET Fold Response", "Recorded number": 1.86}
{"Molecule": "COc1ccccc1N1CCN(CCCCN2C(=O)c3ccc(CNC(=O)CCOCCOCCOCCOCCNC(=O)CCc4ccc5n4[B-](F)(F)[N+]4=C(c6ccc[nH]6)C=CC4=C5)cc3C2=O)CC1", "Recorded endpoint": "NanoBRET Fold Response", "Recorded number": 1.41}

###

target: DRD3 (Homo sapiens, UniProt P35462); construct: purchased Promega (in-house HiBiT-GPCR construct library, NanoBRET); experiment: NanoBRET screen HiBiT-DRD3 in HEK293; type: binding; details: DRD3; tracer 1μM
Sequence (P35462 whole entry): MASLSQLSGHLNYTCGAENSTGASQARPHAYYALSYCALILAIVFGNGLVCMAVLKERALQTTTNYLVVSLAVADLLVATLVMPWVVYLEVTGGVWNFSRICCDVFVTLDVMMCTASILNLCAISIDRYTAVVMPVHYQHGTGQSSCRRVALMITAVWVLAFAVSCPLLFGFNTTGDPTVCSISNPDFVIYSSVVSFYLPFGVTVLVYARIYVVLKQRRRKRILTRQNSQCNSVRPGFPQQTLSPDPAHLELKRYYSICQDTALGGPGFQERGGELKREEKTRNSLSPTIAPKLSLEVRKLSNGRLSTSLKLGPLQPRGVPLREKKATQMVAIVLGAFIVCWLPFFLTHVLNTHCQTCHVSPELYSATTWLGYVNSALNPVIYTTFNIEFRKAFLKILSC

{"Molecule": "CC(C)N(CC[C@H](c1ccccc1)c1cc(CCNC(=O)c2ccc(CNC(=O)CCc3ccc4n3[B-](F)(F)[N+]3=C(c5ccc[nH]5)C=CC3=C4)cc2)ccc1O)C(C)C [Tolterodine-BZ-NB590]", "Target or test system": "DRD3 (Homo sapiens, UniProt P35462)", "NanoBRET Fold Response": 1.25}
{"Molecule": "COc1ccccc1N1CCN(CCCCN2C(=O)c3ccc(CNC(=O)CCOCCOCCOCCOCCNC(=O)CCc4ccc5n4[B-](F)(F)[N+]4=C(c6ccc[nH]6)C=CC4=C5)cc3C2=O)CC1 [NAN-190-2-NB590]", "Target or test system": "DRD3 (Homo sapiens, UniProt P35462)", "NanoBRET Fold Response": 1.69}
{"Molecule": "O=C(CCc1ccc2n1[B-](F)(F)[N+]1=C(c3ccc[nH]3)C=CC1=C2)NCc1ccc(C(=O)NCCOCCC(=O)N[C@@H]2CC[C@@]3(O)[C@H]4Cc5ccc(O)c6c5[C@@]3(CCN4CC3CC3)[C@H]2O6)cc1 [Naltrexone-3-NB590]", "Target or test system": "DRD3 (Homo sapiens, UniProt P35462)", "NanoBRET Fold Response": 1.37}
{"Molecule": "Cc1cc2c(s1)Nc1ccccc1N=C2N1CCN(CCCNC(=O)CCOCCOCCOCCOCCNC(=O)CCc2ccc3n2[B-](F)(F)[N+]2=C(c4ccc[nH]4)C=CC2=C3)CC1 [Olanzapine-a-2-NB590]", "Target or test system": "DRD3 (Homo sapiens, UniProt P35462)", "NanoBRET Fold Response": 2.07}
{"Molecule": "O=C(CCc1ccc2n1[B-](F)(F)[N+]1=C(c3ccc[nH]3)C=CC1=C2)NCCOCCOCCNC(=O)OCCOCCN1CCN(C2=Nc3ccccc3Sc3ccccc32)CC1 [Quetiapine-a-2-NB590]", "Target or test system": "DRD3 (Homo sapiens, UniProt P35462)", "NanoBRET Fold Response": 1.98}
{"Molecule": "CCCn1c(=O)c2[nH]c(-c3ccc(OCC(=O)NCCNC(=O)CCOCCNC(=O)c4ccc(CNC(=O)CCc5ccc6n5[B-](F)(F)[N+]5=C(c7ccc[nH]7)C=CC5=C6)cc4)cc3)nc2n(CCC)c1=O [XAC-3-NB590]", "Target or test system": "DRD3 (Homo sapiens, UniProt P35462)", "NanoBRET Fold Response": 0.81}
{"Molecule": "CC(C)N(CC[C@H](c1ccccc1)c1cc(CCNC(=O)CCOCCOCCOCCOCCNC(=O)CCc2ccc3n2[B-](F)(F)[N+]2=C(c4ccc[nH]4)C=CC2=C3)ccc1O)C(C)C [Tolterodine-2-NB590]", "Target or test system": "DRD3 (Homo sapiens, UniProt P35462)", "NanoBRET Fold Response": 0.98}
{"Molecule": "COc1ccccc1N1CCN(CCCCN2C(=O)c3ccc(CNC(=O)CCOCCNC(=O)c4ccc(CNC(=O)CCc5ccc6n5[B-](F)(F)[N+]5=C(c7ccc[nH]7)C=CC5=C6)cc4)cc3C2=O)CC1 [NAN-190-3-NB590]", "Target or test system": "DRD3 (Homo sapiens, UniProt P35462)", "NanoBRET Fold Response": 1.52}
{"Molecule": "N#CN=C(NCCCOc1cccc(CN2CCCCC2)c1)NCCNC(=O)CCOCCOCCOCCOCCNC(=O)CCc1ccc2n1[B-](F)(F)[N+]1=C(c3ccc[nH]3)C=CC1=C2 [Aminopotentidine-2-NB590]", "Target or test system": "DRD3 (Homo sapiens, UniProt P35462)", "NanoBRET Fold Response": 1.17}

###

This listing pairs compounds with measured NanoBRET Fold Response.
Biological target: RXFP1 (Homo sapiens, UniProt Q9HBX9)
Construct: purchased Promega (in-house HiBiT-GPCR construct library, NanoBRET)
Sequence (Q9HBX9 1-757): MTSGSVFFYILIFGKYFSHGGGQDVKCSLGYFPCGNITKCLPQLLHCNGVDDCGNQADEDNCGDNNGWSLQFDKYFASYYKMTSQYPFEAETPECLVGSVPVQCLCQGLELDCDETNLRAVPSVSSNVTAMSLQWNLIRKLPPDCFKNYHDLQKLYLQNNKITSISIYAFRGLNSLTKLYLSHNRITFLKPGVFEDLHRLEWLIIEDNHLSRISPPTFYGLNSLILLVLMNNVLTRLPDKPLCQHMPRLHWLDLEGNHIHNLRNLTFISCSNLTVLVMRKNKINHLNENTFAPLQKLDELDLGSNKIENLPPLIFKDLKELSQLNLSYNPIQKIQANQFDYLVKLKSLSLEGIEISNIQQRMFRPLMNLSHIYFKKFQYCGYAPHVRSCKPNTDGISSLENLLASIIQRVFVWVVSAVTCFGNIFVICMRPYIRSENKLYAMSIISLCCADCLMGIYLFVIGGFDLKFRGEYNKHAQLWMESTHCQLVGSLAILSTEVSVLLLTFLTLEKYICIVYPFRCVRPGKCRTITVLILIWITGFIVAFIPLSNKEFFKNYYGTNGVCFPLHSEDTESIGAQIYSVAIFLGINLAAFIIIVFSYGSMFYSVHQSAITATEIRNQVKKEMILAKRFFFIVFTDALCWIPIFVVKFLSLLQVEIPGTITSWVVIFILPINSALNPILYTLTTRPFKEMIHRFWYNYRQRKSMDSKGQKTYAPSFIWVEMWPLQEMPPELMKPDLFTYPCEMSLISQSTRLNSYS
Test: NanoBRET screen HiBiT-RXFP1 in HEK293
Assay type: binding
Details: RXFP1; tracer 0.1μM
Recorded endpoint: NanoBRET Fold Response

{"Compound": "COc1ccccc1N1CCN(CCCCN2C(=O)c3ccc(CNC(=O)CCOCCOCCOCCOCCNC(=O)CCc4ccc5n4[B-](F)(F)[N+]4=C(c6ccc[nH]6)C=CC4=C5)cc3C2=O)CC1 [NAN-190-2-NB590]", "Recorded endpoint": "NanoBRET Fold Response", "Recorded number": 0.78}
{"Compound": "COc1ccccc1N1CCN(CCCCN2C(=O)c3ccc(CNC(=O)CCOCCNC(=O)c4ccc(CNC(=O)CCc5ccc6n5[B-](F)(F)[N+]5=C(c7ccc[nH]7)C=CC5=C6)cc4)cc3C2=O)CC1 [NAN-190-3-NB590]", "Recorded endpoint": "NanoBRET Fold Response", "Recorded number": 0.88}
{"Compound": "CC(C)N(CC[C@H](c1ccccc1)c1cc(CCNC(=O)CCOCCOCCOCCOCCNC(=O)CCc2ccc3n2[B-](F)(F)[N+]2=C(c4ccc[nH]4)C=CC2=C3)ccc1O)C(C)C [Tolterodine-2-NB590]", "Recorded endpoint": "NanoBRET Fold Response", "Recorded number": 1.11}
{"Compound": "O=C(CCc1ccc2n1[B-](F)(F)[N+]1=C(c3ccc[nH]3)C=CC1=C2)NCc1ccc(C(=O)NCCOCCC(=O)N[C@@H]2CC[C@@]3(O)[C@H]4Cc5ccc(O)c6c5[C@@]3(CCN4CC3CC3)[C@H]2O6)cc1 [Naltrexone-3-NB590]", "Recorded endpoint": "NanoBRET Fold Response", "Recorded number": 1.31}
{"Compound": "Cc1cc2c(s1)Nc1ccccc1N=C2N1CCN(CCCNC(=O)CCOCCOCCOCCOCCNC(=O)CCc2ccc3n2[B-](F)(F)[N+]2=C(c4ccc[nH]4)C=CC2=C3)CC1 [Olanzapine-a-2-NB590]", "Recorded endpoint": "NanoBRET Fold Response", "Recorded number": 1.25}
